# protocol.summary: Acute toxicity (mortality during 24 hours, i.p.)
# condition.parameters: mouse, in vivo, ip
measured.endpoint: LD50 at 24 h

Examples with answers:
The molecule listed as CCN(CC)CCNc1nnc(-c2ccccc2)cc1C [CM 30070, reference compound] shows LD50 at 24 h equal to 80 mg/kg

The molecule listed as NCCNc1cc(-c2ccccc2)cnn1 shows LD50 at 24 h equal to > 200 mg/kg

The molecule listed as NCCNc1ccc(-c2ccccc2)nn1 shows LD50 at 24 h equal to > 200 mg/kg

Here's the next entry for you.
The molecule listed as NCCNc1nnccc1-c1ccccc1 shows LD50 at 24 h equal to ~150 mg/kg

====

# Tested on: ptosis induced by reserpine
# protocol.summary: Antagonism of the ptosis induced by reserpine
# Assay type: in vivo, female mice CDI (Charles River)
# condition.parameters: Mus musculus, ip, reserpine 2 mg/kg i.v. simultaneously, 1 hour
measured.endpoint: ED50 (mg/kg)
Lab book: enter the figure in mg/kg, no units written.

The compound listed as Cc1cc(-c2ccccc2)nnc1NCCN1CCOCC1 [Minaprine] shows ED50 equal to 5

Here's the next entry for you.
The compound listed as Cc1cc(-c2ccccc2)nnc1NCCN [CM 30099] shows ED50 equal to 16

====

# System: mice
# condition.parameters: mouse, in vivo, ip
Recorded Convulsivant threshold dose, one value per entry.

Examples with answers:
The molecule listed as CNCCNc1nnc(-c2ccccc2)cc1C shows Convulsivant threshold dose equal to 200 mg/kg

The molecule listed as Cc1cc(-c2ccccc2)nnc1NCCCCN shows Convulsivant threshold dose equal to > 200 mg/kg

The molecule listed as Cc1cc(-c2ccccc2)nnc1NCCN(C)C [CM 30071, reference compound] shows Convulsivant threshold dose equal to 100 mg/kg

The molecule listed as Cc1cc(-c2ccccc2)nnc1NCCCN shows Convulsivant threshold dose equal to > 200 mg/kg

More entries:
The molecule listed as Cc1cc(-c2ccccc2)nnc1NCCN1CCOCC1 shows Convulsivant threshold dose equal to 35 mg/kg

The molecule listed as NCCNc1ccc(-c2ccccc2)nn1 shows Convulsivant threshold dose equal to > 200 mg/kg

The molecule listed as CCN(CC)CCNc1nnc(-c2ccccc2)cc1C [CM 30070, reference compound] shows Convulsivant threshold dose equal to 60 mg/kg

The molecule listed as Cc1cc(-c2ccc(O)cc2)nnc1NCCN shows Convulsivant threshold dose equal to > 200 mg/kg

The molecule listed as Cc1cc(-c2ccccc2)nnc1NCCN shows Convulsivant threshold dose equal to 200 mg/kg

The molecule listed as NCCNc1nnccc1-c1ccccc1 shows Convulsivant threshold dose equal to 100 mg/kg

The molecule listed as NCCNc1cc(-c2ccccc2)cnn1 shows Convulsivant threshold dose equal to > 200 mg/kg

====

# System: ptosis induced by reserpine
# protocol.summary: Antagonism of the ptosis induced by reserpine
# Type: in vivo, female mice CDI (Charles River)
# condition.parameters: Mus musculus, ip, reserpine 2 mg/kg i.v. simultaneously, 1 hour
measured.endpoint: ED50

Examples with answers:
So the reported ED50 for Cc1cc(-c2ccccc2)nnc1NCCCN [CM 30486] , on ptosis induced by reserpine, turned out to be ~10 mg/kg

So the reported ED50 for CCN(CC)CCNc1nnc(-c2ccccc2)cc1C [CM 30070, reference compound] , on ptosis induced by reserpine, turned out to be ~50 mg/kg

Here's the next entry for you.
So the reported ED50 for Cc1cc(-c2ccccc2)nnc1NCCN(C)C [CM 30071, reference compound] , on ptosis induced by reserpine, turned out to be ~50 mg/kg
